Just for reference, the supplement of paper PMC9170038 is where these values come from.

# System: MS2 coat protein
# Protocol: apparent KD of MS2 coat protein; designed switch direction (-1 OFF switch, 1 ON switch): -1; higher = weaker reporter binding
# Protocol conditions: input ligand: none
Would you kindly list apparent KD of MS2 coat protein for each of these sequences?
Numbers only, in nM.

Here is how some sequences turned out for apparent KD of MS2 coat protein.
Sequence code	apparent KD of MS2 coat protein [nM]
AAACAAUCCCGAGGAUAUCGGCUAUUAGCAUGCCGAGAAGGCGGCGCGCAUCGACAUGAGGAUCACCCAUGUGUCCGCUCGGUU [Eternabot solution 31] (Eterna round: R96, puzzle: Exclusion NG 1)	21.6
AACAAGCUUUAAAGAUCCCACAUGAGGAUCACCCAUGUGCUCGUCUUGUAACGUACUGUGACGAAAGUCACGGUACG [JL TOV1 3.28] (Eterna round: R97, puzzle: Sensor, turn-off variant 1)	23.9
CUCGAGUCAGGAUAUGUUCCGCAUGGCAACAUGCUAUAAGAAUAGAAGGGACAUGAGGAUCACCCAUGUUAACA [Eternabot (Original) Solution 12] (Eterna round: R97, puzzle: Exclusion 4)	44.7
ACCUCACUUGAGGAUCACCCAAGUCAGGAUAUACUCGUUUGCCGAAAGACGCGGCAUUGUAGAAGGGACGGGUU [Raortiza] (Eterna round: R97, puzzle: Exclusion 1)	15.5

// next item, apparent KD of MS2 coat protein requested
Exam item: For MS2 coat protein, provide apparent KD of MS2 coat protein of GGUGGGAGGGAUGUGGUGUACAUGAGGAUCACCCAUGUGGUGGACGGGCGCGGGUGCGGGUUUUUUGUUCGUCUUGU [High Nucleotide Full Attached] (Eterna round: R97, puzzle: Sensor, turn-off variant 1) please.
Marked response: 159
